- MEASUREMENT TARGET: Proto-oncogene tyrosine-protein kinase ROS (Homo sapiens, UniProt P08922)
- Sequence (P08922 whole entry): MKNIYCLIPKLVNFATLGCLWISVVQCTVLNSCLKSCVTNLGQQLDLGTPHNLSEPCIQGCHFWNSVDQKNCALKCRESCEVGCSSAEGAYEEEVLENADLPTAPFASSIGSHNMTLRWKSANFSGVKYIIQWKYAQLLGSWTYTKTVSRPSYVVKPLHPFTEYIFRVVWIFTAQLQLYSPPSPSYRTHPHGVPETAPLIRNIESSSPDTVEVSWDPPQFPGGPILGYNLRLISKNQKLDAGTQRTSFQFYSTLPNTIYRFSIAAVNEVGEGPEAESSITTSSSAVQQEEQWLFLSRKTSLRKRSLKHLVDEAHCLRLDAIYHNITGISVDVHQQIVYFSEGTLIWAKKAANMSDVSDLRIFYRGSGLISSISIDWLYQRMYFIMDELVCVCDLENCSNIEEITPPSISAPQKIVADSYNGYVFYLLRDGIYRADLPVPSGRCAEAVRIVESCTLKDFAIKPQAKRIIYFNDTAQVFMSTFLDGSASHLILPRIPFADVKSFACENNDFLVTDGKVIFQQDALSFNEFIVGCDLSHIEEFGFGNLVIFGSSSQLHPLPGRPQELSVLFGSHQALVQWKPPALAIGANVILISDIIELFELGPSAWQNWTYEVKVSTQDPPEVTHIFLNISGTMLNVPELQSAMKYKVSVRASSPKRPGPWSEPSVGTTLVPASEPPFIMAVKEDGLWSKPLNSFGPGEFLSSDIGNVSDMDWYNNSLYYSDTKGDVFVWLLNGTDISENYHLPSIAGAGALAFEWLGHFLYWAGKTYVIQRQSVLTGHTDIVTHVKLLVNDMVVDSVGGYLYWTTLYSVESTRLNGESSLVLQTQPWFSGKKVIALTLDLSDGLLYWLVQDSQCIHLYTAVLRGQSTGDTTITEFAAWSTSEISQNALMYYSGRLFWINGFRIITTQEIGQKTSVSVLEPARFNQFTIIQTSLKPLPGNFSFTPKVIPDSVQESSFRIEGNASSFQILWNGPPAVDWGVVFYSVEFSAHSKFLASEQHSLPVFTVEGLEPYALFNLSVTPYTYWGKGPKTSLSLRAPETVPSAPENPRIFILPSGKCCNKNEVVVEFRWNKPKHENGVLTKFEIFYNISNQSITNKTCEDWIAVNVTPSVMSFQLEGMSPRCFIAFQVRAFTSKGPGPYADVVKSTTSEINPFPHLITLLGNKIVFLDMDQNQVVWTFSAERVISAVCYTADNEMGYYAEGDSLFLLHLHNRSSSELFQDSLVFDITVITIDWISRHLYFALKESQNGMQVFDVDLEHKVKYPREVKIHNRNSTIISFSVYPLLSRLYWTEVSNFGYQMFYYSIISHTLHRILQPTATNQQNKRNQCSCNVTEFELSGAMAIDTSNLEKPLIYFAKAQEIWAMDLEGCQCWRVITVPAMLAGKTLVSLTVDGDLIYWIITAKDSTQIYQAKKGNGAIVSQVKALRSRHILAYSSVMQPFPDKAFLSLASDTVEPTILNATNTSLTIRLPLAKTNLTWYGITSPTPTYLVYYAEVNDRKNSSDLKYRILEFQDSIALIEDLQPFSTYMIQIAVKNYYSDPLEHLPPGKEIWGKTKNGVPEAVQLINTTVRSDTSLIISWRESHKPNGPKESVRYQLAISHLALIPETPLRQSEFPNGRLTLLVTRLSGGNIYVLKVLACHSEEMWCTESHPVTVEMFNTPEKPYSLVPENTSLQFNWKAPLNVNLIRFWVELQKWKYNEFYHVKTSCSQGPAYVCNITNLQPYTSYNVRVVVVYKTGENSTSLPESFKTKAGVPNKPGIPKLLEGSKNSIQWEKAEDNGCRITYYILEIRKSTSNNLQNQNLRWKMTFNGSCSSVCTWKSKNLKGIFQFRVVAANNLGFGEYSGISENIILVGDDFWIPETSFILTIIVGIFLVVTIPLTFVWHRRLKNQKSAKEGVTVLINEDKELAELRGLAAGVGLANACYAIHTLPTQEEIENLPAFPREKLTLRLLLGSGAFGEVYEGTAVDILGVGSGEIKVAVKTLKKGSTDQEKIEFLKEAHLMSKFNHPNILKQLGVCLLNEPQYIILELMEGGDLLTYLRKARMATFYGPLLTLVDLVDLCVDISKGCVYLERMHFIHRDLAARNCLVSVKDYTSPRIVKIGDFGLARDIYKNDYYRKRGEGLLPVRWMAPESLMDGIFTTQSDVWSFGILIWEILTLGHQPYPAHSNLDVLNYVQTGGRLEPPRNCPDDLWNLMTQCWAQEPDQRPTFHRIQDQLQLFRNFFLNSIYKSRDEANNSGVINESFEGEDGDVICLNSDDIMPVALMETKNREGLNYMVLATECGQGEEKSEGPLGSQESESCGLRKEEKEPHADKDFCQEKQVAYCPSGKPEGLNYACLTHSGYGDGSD
pIC50: −log10 of the molar value.
VALUE TYPE: pIC50

SMILES REPR: CC(C)S(=O)(=O)c1ccccc1Nc1nc(N/N=C/c2ccc(C(F)(F)F)cc2)ncc1Cl
VALUE TYPE: pIC50
READOUT VALUE: 8.47

A = CC(C)S(=O)(=O)c1ccccc1Nc1nc(N/N=C/c2ccc(OC(F)(F)F)cc2)ncc1Cl
B = C/C(=N\Nc1ncc(Cl)c(Nc2ccccc2S(=O)(=O)C(C)C)n1)c1ccc(F)cc1
[ask] In the pair A and B , the larger recorded pIC50 belongs to which? Answer with the label corresponding to your selection.
[reply] B

P = CC(C)S(=O)(=O)c1ccccc1Nc1nc(N/N=C/c2cccc(C(F)(F)F)c2)ncc1Cl
Q = CC(C)S(=O)(=O)c1ccccc1Nc1nc(N/N=C/c2ccc(F)cc2)ncc1Cl
[ask] In the pair P and Q , the larger recorded pIC50 belongs to which? Answer with the label corresponding to your selection.
[reply] Q
(Q: 8.74, P: 8.30)

Value source: ChEMBL document CHEMBL3870304
